Cited source: patent US11807625B2

assayProtocol: PK of compound of Formula (Ia) after single subcutaneous dose of solution formulations in beagle dogs
Type: in vivo
assaySetup: male, beagle, dog, plasma, sc, 12 mg/kg, beagle dogs, SC 12 mg/kg, 400 mg/mL solution Z (3.13% poloxamer 188), 2352 h, Mean n = 3

| smilesInput | valueUnit | concentration at 2352 h |
| --- | --- | --- |
| CC(C)(C#Cc1ccc(-c2ccc(Cl)c3c(NS(C)(=O)=O)nn(CC(F)(F)F)c23)c([C@H](Cc2cc(F)cc(F)c2)NC(=O)Cn2nc(C(F)(F)F)c3c2C(F)(F)[C@@H]2C[C@H]32)n1)S(C)(=O)=O | nM | 8.85 |
